Could you please report measured IC50 for the items listed next?
target: Recombinant human renin (Homo sapiens, UniProt P00797); experiment: In vitro renin inhibitory activity assay (fluorescence, FRET peptide substrate); details: 37° C., one hour, substrate 4 μM, pH 7.4
Structures can show the parent of a compound that is named as a salt.
Express it in nM; write the number only.

*Q* Tell me its IC50 on Recombinant human renin (Homo sapiens, UniProt P00797): COCCCOc1cc(C(=O)N(C(C)C)[C@@H]2CC[C@H](CCN(C(=O)Cc3cccnc3)C3CC3)NC2)ccc1OC [Example 78, trifluoroacetate]
*A* 0.79

*Q* Fill in IC50 for COCCCOc1cc(C(=O)N(C(C)C)C2CNC[C@@H](C(=O)N(C)Cc3ccccc3)C2)ccc1OC (mixture of isomers) [Example 41, hydrochloride] tested with Recombinant human renin (Homo sapiens, UniProt P00797).
*A* 430

*Q* Retrieve IC50 on Recombinant human renin (Homo sapiens, UniProt P00797); query COCCCOc1cc(C(=O)N(C(C)C)[C@@H]2CC[C@H](CCN(C(=O)CC(C)(C)C(N)=O)C3CC3)NC2)ccc1OC [Example 69, trifluoroacetate]
*A* 27.9

*Q* Lab note: Recombinant human renin (Homo sapiens, UniProt P00797) assay, enter IC50 for COCCCOc1cc(C(=O)N(C(C)C)[C@@H]2CC[C@H](CCN(C(=O)CCCO)C3CC3)NC2)ccc1OC [Example 66, hydrochloride] here
*A* 61

*Q* State, for Recombinant human renin (Homo sapiens, UniProt P00797), measured IC50 of the compound listed here: COCCCOc1cc(C(=O)N(C(C)C)[C@H]2CNC[C@@H](COc3cccc(-c4ccccc4)c3)C2)ccc1OC (racemic) [Example 48, hydrochloride]
*A* 620

*Q* Recall the reported IC50 of COCCCOc1cc(C(=O)N(C(C)C)[C@@H]2CC[C@H](CCN(C(=O)Cc3cccc(NS(C)(=O)=O)c3)C3CC3)NC2)ccc1OC [Example 81, trifluoroacetate] on Recombinant human renin (Homo sapiens, UniProt P00797) and write it down.
*A* 1.3

* * *

Target: Recombinant human renin (Homo sapiens)
Sequence (P00797 67-406): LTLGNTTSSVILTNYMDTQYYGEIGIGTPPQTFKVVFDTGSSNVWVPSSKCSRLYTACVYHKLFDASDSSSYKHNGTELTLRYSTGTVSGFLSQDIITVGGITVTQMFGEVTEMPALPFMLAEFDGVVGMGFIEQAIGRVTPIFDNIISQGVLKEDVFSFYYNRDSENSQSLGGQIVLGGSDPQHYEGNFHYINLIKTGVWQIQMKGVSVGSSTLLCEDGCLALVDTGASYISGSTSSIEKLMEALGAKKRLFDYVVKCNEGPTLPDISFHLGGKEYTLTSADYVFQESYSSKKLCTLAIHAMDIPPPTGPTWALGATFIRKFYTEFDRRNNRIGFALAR
Assay: In vitro renin inhibitory activity assay (fluorescence, FRET peptide substrate)
Conditions: 37° C., one hour, substrate 4 μM, pH 7.4
Structures can show the parent of a compound that is named as a salt.
Measured Parameter: pIC50
On this scale, pIC50 is minus log10 of a concentration expressed in M (mol/L).

*Q* Please indicate pIC50 recorded for COCCCOc1cc(C(=O)N(C(C)C)[C@H]2CNC[C@@H](COc3cccc(OCc4ccccc4)c3)C2)ccc1OC (racemic) [Example 50, hydrochloride]
*A* 6.27

*Q* Provide pIC50 value for the following compound: COCCCOc1cc(C(=O)N(C(C)C)[C@H]2CNC[C@@H](COc3cccc(Oc4ccccc4)c3)C2)ccc1OC (racemic) [Example 49, hydrochloride]
*A* 6.13

*Q* Please give measured pIC50 of the following entry: CCOC(=O)C[C@H]1CC[C@@H](N(C(=O)c2ccc(OC)c(OCCCOC)c2)C(C)C)CN1 (racemic)
*A* 6.03

*Q* Look up pIC50 of COCCCOc1cc(C(=O)N(C(C)C)[C@@H]2CC[C@H](CC(=O)NC3CC3)NC2)ccc1OC (racemic) [Example 52, hydrochloride] and report it.
*A* 6.23

*Q* Tell me pIC50 reported for CCN(C(=O)C[C@H]1CC[C@@H](N(C(=O)c2ccc(OC)c(OCCCOC)c2)C(C)C)CN1)C(C)C (racemic) [Example 22, hydrochloride]
*A* 6.32
